Reference source: PubChem BioAssay

Method: small molecules captured by biotinylated probe aFGF2 – biochemical, small-molecule microarray, fluorescence 635/667, stem cell growth factor project, primary screen (AID 1067);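 note: measures binding of biotinylated aFGF2 protein to printed compounds on slides; z-score merges feature fluorescence and signal-to-noise across triplicate slides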
Details: higher = more signal
Short version: composite z-score at least -0.002 is T, less is F.

Here's what some known entries look like.
1) O=C1N(CCS(=O)(=O)c2ccccc2)Cc2ccccc2C[C@@]12COC(c1ccc(OCCCO)cc1)=N2; T
2) CC(C)N1CC=CC23O[C@@H]4C=CCOC(=O)[C@@H]4[C@H]2C(=O)N(CCCCCCO)[C@@H]3C1=O (some centres not stated); F
3) CCCNC(=O)[C@@H]1c2ccccc2C(=O)N(CC23CC4CC(CC(C4)C2)C3)[C@H]1c1ccc(CO)cc1; F

Input line: Dear colleague, could you confirm whether `C[N+](C)(C)CCCC[C@@H]1NC(=O)[C@H]2C[C@@H](C(=O)NCCCCCCN)[C@@H](c3cccc(OCCO)c3)N2C1=O` has composite z-score at or above -0.002?
Output line: T

Input line: Dear colleague, could you confirm whether `C=C(CCCC)/C(=C/C[C@H](OC(=O)c1ccncc1)c1ccc(CO)o1)c1cc(C(=O)OC)ccc1OC` has composite z-score at or above -0.002?
Output line: F

Input line: Dear colleague, could you confirm whether `O=C1O[C@H](c2ccccc2)[C@H](c2ccccc2)N2[C@H]1[C@@H](C(=O)NC[C@H](O)c1ccccc1)[C@]1(C(=O)Nc3ccccc31)[C@H]2c1ccccc1OCCO` has composite z-score at or above -0.002?
Output line: F

Input line: Dear colleague, could you confirm whether `COCCOC(=O)N1C(=O)[C@@]2(c3ccccc31)[C@H](c1ccccc1OCCO)N1[C@H](c3ccccc3)[C@H](c3ccccc3)OC(=O)[C@H]1[C@@H]2C(=O)N1CCc2cc(OC)c(OC)cc2C1` has composite z-score at or above -0.002?
Output line: T

---

Method: viability profiling in MM1S myeloma cells – cell-based, resazurin fluorescence, basal, 24 h, PK04 Diversity Set, profiling panel (AID 1174);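 note: MM1S multiple myeloma cell line; test concentration not given here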
Details: higher = more signal, called active from +8 up or from −8 down
Exercise: state measured z-score for each of the compounds provided.
Numbers only.

These recorded examples may help you get a feel for the data.
1. NC(=O)NCC#Cc1ccc2c(c1)[C@]1(C(=O)N2)[C@H](c2ccc(O)cc2)N2[C@H](c3ccccc3)[C@H](c3ccccc3)OC(=O)[C@H]2[C@@H]1C(N)=O; -0.226
2. O=C1OCC=C[C@H]2OC34C=CCN(CCN5CCOCC5)C(=O)[C@H]3N(CCCCCO)C(=O)[C@@H]4[C@@H]12 (some centres undefined); -1.12
3. CN(C)CCCCCCNC(=O)[C@@H]1C[C@@H]2C(=O)NCC(=O)N2[C@@H]1c1ccc(O)cc1; -1.26

Please find the next compound below.
Lab note: `COc1ccc([Si](C)(C)[C@@H]2[C@@H](CC(=O)N(CCO)Cc3ccccc3)O[C@]3(C(=O)N(C)c4c(Br)cc(C)cc43)[C@H]2C)cc1` gave z-score of -1.79

---

Exercise: state measured z-score for each of the molecules provided.
Method: plasmodial surface anion channel blockers, osmotic lysis – cell-based, P. falciparum Indochina, OD700, 18 h, primary screen (AID 1157)
Details: P. falciparum Indochina infected erythrocytes, osmotic lysis OD700, 18 h; higher = more signal, called active from +8 up or from −8 down
One number for each entry.

These recorded examples may help you get a feel for the data.
1. COCCOC(=O)N1C(=O)[C@@]2(c3cc(C#CC4(O)CCCCCC4)ccc31)[C@H](C(=O)NC[C@H](O)c1ccccc1)[C@H]1C(=O)O[C@H](c3ccccc3)[C@H](c3ccccc3)N1[C@@H]2c1ccc(OCCO)cc1; 1.03
2. COC(=O)c1ccc(OC)c(/C=C\CC(CCc2ccccc2)OC(C)=O)c1 (centres undefined); 0.0093
3. CCCC=C(CCC)[C@@H](NS(=O)(=O)c1ccccc1)c1ccc(C(F)(F)F)cc1; 0.983

Please find the next molecule below.
Lab note: `CC(C)NC(=O)[C@@]1(Cc2ccccc2I)c2ccccc2C(=O)N(Cc2ccccc2C(F)(F)F)[C@H]1c1ccc(CO)cc1` gave z-score of 1.19

---

Tested system: Epidermal growth factor receptor (Homo sapiens)
Method: compounds binding epidermal growth factor receptor – biochemical, small-molecule microarray, 635 nm fluorescence, primary screen (AID 1104);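 note: score merges 667 nm emission intensity with spot signal to noise over triplicate slides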
Details: EGFR binding, higher = more signal
Short version: composite z-score at least 0.1 is Satisfied, less is Not satisfied.

Here's what some known entries look like.
1) O=C(CS)NCCCCCNC(=O)[C@@H]1C[C@@H]2C(=O)N3CCC[C@H]3C(=O)N2[C@@H]1c1ccc(O)cc1; Satisfied
2) CCCN1C(=O)[C@@H]2Cc3c([nH]c4ccccc34)[C@@H](c3cccc(O)c3)N2C1=O; Satisfied
3) COC(=O)[C@@]1(Cc2ccccc2)[C@H]2c3cc(C(=O)N(C)C)n(Cc4ccccn4)c3C[C@H]2CN1C(=O)c1ccccc1; Not satisfied
4) COc1ccc(CCNC(=O)[C@@H]2c3ccccc3C(=O)N(Cc3ccccc3)[C@H]2c2ccc(CO)cc2)cc1; Not satisfied
5) Cc1ccc(N2C(=O)c3ccccc3[C@](C)(C(=O)NC(C)C)[C@@H]2c2ccc(CO)cc2)nc1; Not satisfied
6) O=C1c2ccccc2C(=O)C2CC([C@H]3Oc4ccccc4S(=O)(=O)N4CCC[C@@H]34)=CCC12 (stereo partly specified); Satisfied

Input line: Dear colleague, could you confirm whether N#Cc1ccc(NN2C(C(O)c3ccccc3)C=CC3C(=O)N(c4ccccc4)C(=O)C32)cc1 (stereo unspecified) has composite z-score at or above 0.1?
Output line: Not satisfied

Input line: Dear colleague, could you confirm whether `CC(C)CNC(=O)[C@@]1(C)c2ccccc2C(=O)N(Cc2ccccc2)[C@H]1c1ccc(CO)cc1` has composite z-score at or above 0.1?
Output line: Not satisfied

Input line: Dear colleague, could you confirm whether `CC(C)CN1C(=O)[C@@]2(Cc3ccccc31)c1ccccc1C(=O)N(Cc1ccccc1)[C@H]2c1ccc(CO)cc1` has composite z-score at or above 0.1?
Output line: Not satisfied

Input line: Dear colleague, could you confirm whether C=CC[C@]1(C(=O)NCC(O)CO)N=C(c2ccc(OCCCO)cc2)O[C@H]1c1ccccc1N=[N+]=[N-] (stereo partly specified) has composite z-score at or above 0.1?
Output line: Not satisfied

---

Exercise: state measured composite z-score for each of the molecules provided.
Method: probe aCHRDL2 binding to arrayed compounds – biochemical, biotinylated probe, 635/667 nm fluorescence, primary screen (AID 1100)
Details: small-molecule microarray, higher = more signal
Answers are plain numbers.

Look at each molecule and report its composite z-score.
1. C[N+](C)(C)CCCCCCNC(=O)[C@@H]1C[C@@H]2C(=O)NCC(=O)N2[C@@H]1c1ccc(O)cc1
2. C[N+](C)(C)CCCC[C@@H]1NC(=O)[C@@H]2C[C@H](C(=O)O)[C@H](c3cccc(OCCO)c3)N2C1=O
3. C=CCOC(=O)[C@@H]1[C@H]2C(=O)O[C@H](c3ccccc3)[C@H](c3ccccc3)N2[C@H](c2ccc(OCCOC(=O)[C@@H]3C[C@@H]4C(=O)N[C@@H](CCCCNC(C)=O)C(=O)N4[C@@H]3c3ccc(O)cc3)cc2)[C@@]12C(=O)Nc1ccc(I)cc12

Output line:
[0.135, 0.667, -0.249]

Lab note: `C#CCOC(=O)N[C@H](C=CCCCC)c1ccccc1` gave composite z-score of 0.942

---

Method: hepatitis C replication reporter changes, two-sided – Huh7 cells, luciferase reporter, HCV replication inhibitor project, primary screen (AID 1109);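 note: huh7 hepatoma cells harbouring a luciferase neomycin HCV replicon reporter; luciferase luminescence as measure of HCV replicon replication; test concentration not given here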
Details: Huh7 HCV replicon luciferase reporter, 48 h; higher = more signal
Short version: z-score at least -0.4 is True, less is False.

Here's what some known entries look like.
1. COC(=O)[C@]1(Cc2ccccc2CN=[N+]=[N-])N=C(c2ccc(OCCCO)cc2)O[C@@H]1c1ccccc1; False
2. COCCOC(=O)N1C(=O)[C@@]2(c3cc(C#CCCO)ccc31)[C@H](c1ccc(OCCO)cc1)N1[C@H](c3ccccc3)[C@H](c3ccccc3)OC(=O)[C@H]1[C@@H]2C(=O)N1CCc2cc(OC)c(OC)cc2C1; False
3. CC(C)CCC[C@@H](C)[C@H]1CC[C@@]2(C)C3=C(CC[C@]12C)[C@@]1(C)CC[C@H](OC(=O)c2ccc(N)cc2)C(C)(C)C1CC3 (stereo not given in full); True
4. C=C(COC)C(=O)CC[C@H](OC(=O)c1ccccc1-c1ccccc1C(=O)O)c1ccc(CO)o1; True
5. COc1ccccc1CN1C(=O)c2ccccc2[C@@]2(Cc3ccccc3N(C3CC3)C2=O)[C@@H]1c1ccc(CO)cc1; True

Input line: Dear colleague, could you confirm whether CC(C)CCC[C@@H](C)[C@H]1CC[C@@]2(C)C3=C(CC[C@]12C)[C@@]1(C)CC[C@H](OC(=O)C(C)(C)C)C(C)(C)C1CC3 (stereo not given in full) has z-score at or above -0.4?
Output line: False

Input line: Dear colleague, could you confirm whether C=CC[C@]1(C(=O)NCC(O)CO)N=C(c2ccc(OCCCO)cc2)O[C@H]1c1ccccc1N=[N+]=[N-] (stereo not given in full) has z-score at or above -0.4?
Output line: True

Input line: Dear colleague, could you confirm whether `NC(=O)NCC#Cc1ccc2c(c1)[C@]1(C(=O)N2)[C@H](c2ccc(O)cc2)N2[C@H](c3ccccc3)[C@H](c3ccccc3)OC(=O)[C@H]2[C@@H]1C(=O)NC[C@H](O)c1ccccc1` has z-score at or above -0.4?
Output line: True

Input line: Dear colleague, could you confirm whether `CC(C)N1C(=O)c2ccccc2[C@](C)(C(=O)O)[C@@H]1c1ccc(CO)cc1` has z-score at or above -0.4?
Output line: True

Input line: Dear colleague, could you confirm whether CC1(C)[C@@H]2CC(C(O)C3C=CC4C(=O)N(c5ccccc5)C(=O)C4N3Nc3ccccc3F)=C[C@@H]1C2 (stereo not given in full) has z-score at or above -0.4?
Output line: False

Input line: Dear colleague, could you confirm whether O=C1OCC=C[C@H]2OC34C=CCN(CCN5CCOCC5)C(=O)[C@H]3N(CCCCCO)C(=O)[C@@H]4[C@@H]12 (stereo not given in full) has z-score at or above -0.4?
Output line: True

Input line: Dear colleague, could you confirm whether `[N-]=[N+]=NCc1ccccc1C[C@]1(C(=O)NCCN2CCOCC2)N=C(c2ccc(OCCCO)cc2)O[C@H]1c1ccccc1` has z-score at or above -0.4?
Output line: False

Input line: Dear colleague, could you confirm whether CC(C)c1ccc(NN2C(C(O)c3ccccn3)C=CC3C(=O)N(c4ccccc4)C(=O)C32)cc1 (stereo not given) has z-score at or above -0.4?
Output line: True

Input line: Dear colleague, could you confirm whether `C[N+](C)(C)CCCC[C@@H]1NC(=O)[C@@H]2C[C@H](C(=O)O)[C@H](c3cccc(OCCO)c3)N2C1=O` has z-score at or above -0.4?
Output line: True

Input line: Dear colleague, could you confirm whether `CN(C)C(=O)[C@@]1(CCS(=O)(=O)c2ccccc2)N=C(c2ccc(OCCCO)cc2)O[C@H]1c1ccccc1CN=[N+]=[N-]` has z-score at or above -0.4?
Output line: False

Input line: Dear colleague, could you confirm whether `COC(=O)[C@@]1(Cc2ccc(F)cc2)[C@H]2c3cc(C(=O)N4CCCC4)n(Cc4ccccc4)c3C[C@H]2CN1C(=O)c1ccccc1` has z-score at or above -0.4?
Output line: False

Input line: Dear colleague, could you confirm whether `COc1ccc([Si](C)(C)[C@@H]2[C@@H](CCO)O[C@]3(C(=O)N(Cc4ccccc4)c4ccc(N5CCCCC5=O)cc43)[C@H]2C)cc1` has z-score at or above -0.4?
Output line: False

Input line: Dear colleague, could you confirm whether `O=C(CS)NCCCCCNC(=O)[C@@H]1C[C@@H]2C(=O)N3CCC[C@H]3C(=O)N2[C@@H]1c1ccc(O)cc1` has z-score at or above -0.4?
Output line: True

Input line: Dear colleague, could you confirm whether CCOc1cc(C(O)C2C=CC3C(=O)NC(=O)C3N2Nc2ccccn2)ccc1O (stereo not given) has z-score at or above -0.4?
Output line: True

Input line: Dear colleague, could you confirm whether `COc1ccccc1CN1C(=O)c2ccccc2[C@@H](C(=O)NCC(C)C)[C@@H]1c1ccc(CO)cc1` has z-score at or above -0.4?
Output line: False

Input line: Dear colleague, could you confirm whether `NC(=O)[C@@H]1[C@H]2C(=O)O[C@H](c3ccccc3)[C@H](c3ccccc3)N2[C@H](c2ccccc2OCCO)[C@@]12C(=O)Nc1ccc(C#CCCO)cc12` has z-score at or above -0.4?
Output line: False
